read-out: Tissue Factor, F3 (gene 2152); experiment: BSK_LPS_TissueFactor: BioMAP Diversity Plus: LPS Assay for Tissue Factor Biomarker Activity (AID 2283084); conditions: primary human HUVEC with PBMC; actives raise or lower the signal
Activity calls are given as the source filed them. The calls were made as follows: active = hit-call score of the fitted dose curve at least 0.9, where 1 is the maximum; inactive = score below 0.9.
In this exercise, the only acceptable responses are active, inactive

Some entries whose results are on file:
| Molecule | Qualitative Label |
| --- | --- |
| CCCCC(CC)COC(=O)CCCCCCCCC(=O)OCC(CC)CCCC (stereo unspecified) | inactive |
| CC[C@H](C)C(=O)O[C@H]1C[C@@H](C)C=C2C=C[C@H](C)[C@H](CC[C@@H]3C[C@@H](O)CC(=O)O3)[C@H]21 | inactive |
| CC1=CC(=O)CC(C)(C)C1 | inactive |
| O=C1CCC(N2C(=O)c3ccccc3C2=O)C(=O)N1 (stereo unspecified) | inactive |
| COc1ccc2sc(C(=O)Nc3nnn[nH]3)c(OC(C)C)c2c1 | active |

Lookup: Please indicate how the test categorized CC(C)=CCCC(C)CCO (stereo unspecified) .
Found: inactive

Lookup: Please indicate how the test categorized `CC(=O)OCCC(C)C` .
Found: inactive

Lookup: Please indicate how the test categorized `CCOC(=O)CC(CC(=O)OCC)(OC(C)=O)C(=O)OCC` .
Found: inactive

Lookup: Please indicate how the test categorized `Cc1c(-c2cccnc2)c2ccccc2n1CCCCC(=O)O` .
Found: inactive

Lookup: Please indicate how the test categorized O=c1[nH]c2ccc(S(=O)CCN3CCC(Cc4ccc(F)cc4)CC3)cc2o1 (stereo unspecified) .
Found: inactive

Lookup: Please indicate how the test categorized `Nc1nc2ncc(CNc3ccc(C(=O)N[C@@H](CCC(=O)O)C(=O)O)cc3)nc2c(=O)[nH]1` .
Found: inactive

###

assay: ATG_DR4_LXR_CIS: Attagene CIS-FACTORIAL HepG2 Assay for human Liver X Receptor (LXR), DR4 submotif (AID 2282929); settings: HepG2 Attagene DR4 cis-reporter, mRNA transcription; actives raise or lower the signal
Calls of active or inactive are those of the source. How the source made its calls: active means hit-call score of the fitted dose curve at least 0.9, where 1 is the maximum; inactive means score below 0.9.
Experimental Readout: AC50

| Compound | Experimental Readout | Obs Value |
| --- | --- | --- |
| Cc1ccc(N)cc1O | AC50 | inactive |
| CCCCCCCCCCCCCCCO | AC50 | 57.7 µM (active) |
| COc1ccc(-n2nc(C(F)F)cc2-c2ccc(S(C)=O)cc2)cc1 (centres undefined) | AC50 | inactive |
| COc1ccc2sc(C(=O)Nc3nnn[nH]3)c(OC(C)C)c2c1 | AC50 | 158 µM (active) |

Lookup: Request the reported AC50 associated with `Cc1ccc(O)cc1`
Found: inactive

Lookup: Request the reported AC50 associated with CNS(=O)(=O)c1cc(C(=O)N2CCC(CCN3C4CCC3CC(n3c(C)nc5ccccc53)C4)(c3cccc(F)c3)CC2)c(Cl)cc1F (centres undefined)
Found: 7.55 µM (active)

Lookup: Request the reported AC50 associated with `Clc1nc(Cl)c(Cl)c(Cl)c1Cl`
Found: inactive

Lookup: Request the reported AC50 associated with `C=CCCCCCCCCC(=O)O`
Found: inactive

Lookup: Request the reported AC50 associated with `O=P(OC(CCl)CCl)(OC(CCl)CCl)OC(CCl)CCl`
Found: inactive

Lookup: Request the reported AC50 associated with `CNCc1ccc(NC(=O)c2c[nH]c3c2C(=O)CCC3)cc1`
Found: inactive

Lookup: Request the reported AC50 associated with CC(C)CC(C)(O)C#CC(C)(O)CC(C)C (centres undefined)
Found: inactive

Lookup: Request the reported AC50 associated with `CC(=O)OC[C@H]1O[C@@](COC(C)=O)(O[C@H]2O[C@H](COC(C)=O)[C@@H](OC(C)=O)[C@H](OC(C)=O)[C@H]2OC(C)=O)[C@@H](OC(C)=O)[C@@H]1OC(C)=O`
Found: inactive

Lookup: Request the reported AC50 associated with `CC1(C)C(=O)N(Br)C(=O)N1Br`
Found: inactive

Lookup: Request the reported AC50 associated with `COCCOCCOCCOC`
Found: inactive

###

read-out: Cytochrome P450 3A4 (Homo sapiens) (UniProt P08684); experiment: LTEA_HepaRG_CYP3A4: Life Technologies and Expression Analysis (LTEA) Assay for CYP3A4 using HepaRG (AID 2283487); conditions: mRNA level, 48 h; actives raise or lower the signal
Sequence (P08684 whole entry, looked up): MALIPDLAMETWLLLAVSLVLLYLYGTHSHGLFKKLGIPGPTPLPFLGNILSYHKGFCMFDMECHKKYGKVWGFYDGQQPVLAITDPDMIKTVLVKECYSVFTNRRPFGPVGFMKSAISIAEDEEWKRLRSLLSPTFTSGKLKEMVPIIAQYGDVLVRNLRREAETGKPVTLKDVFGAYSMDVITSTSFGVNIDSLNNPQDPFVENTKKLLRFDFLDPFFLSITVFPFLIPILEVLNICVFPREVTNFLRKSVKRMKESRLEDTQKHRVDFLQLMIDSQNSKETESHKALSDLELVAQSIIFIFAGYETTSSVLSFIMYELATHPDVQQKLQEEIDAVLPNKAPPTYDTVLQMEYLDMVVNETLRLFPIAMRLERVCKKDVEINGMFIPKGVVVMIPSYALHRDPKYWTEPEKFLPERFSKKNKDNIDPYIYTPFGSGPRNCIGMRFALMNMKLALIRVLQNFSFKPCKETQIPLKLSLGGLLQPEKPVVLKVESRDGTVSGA
Calls of active or inactive are those of the source. Rule for the calls: active = hit-call score of the fitted dose curve at least 0.9, where 1 is the maximum; inactive = score below 0.9.
In this exercise, the only acceptable responses are yes = active, no = inactive

| Compound | Qualitative Label |
| --- | --- |
| O=C1CCCCCN1 | no |

Lookup: Please indicate how the test categorized `C=CCCCCCCCCC(=O)O` .
Found: no

Lookup: Please indicate how the test categorized Fc1ccccc1[C@@H](F)COC1CCC(Nc2ncnc3[nH]ncc23)CC1 (stereo not given in full) .
Found: yes

Lookup: Please indicate how the test categorized `CCCCCCCCCCCCc1ccccc1` .
Found: no

Lookup: Please indicate how the test categorized O=C1CCC(N2C(=O)c3ccccc3C2=O)C(=O)N1 (stereo not given) .
Found: no

Lookup: Please indicate how the test categorized `CC(=O)c1ccc2c(c1)[C@H](NC(=O)c1ccc(F)cc1)[C@@H](O)C(C)(C)O2` .
Found: yes

Lookup: Please indicate how the test categorized `COC(=O)c1c(Cl)c(Cl)c(C(=O)OC)c(Cl)c1Cl` .
Found: no

Lookup: Please indicate how the test categorized `Nc1ccc(Nc2ccccc2)cc1` .
Found: no

Lookup: Please indicate how the test categorized `COC(=O)c1ccccc1O` .
Found: no

Lookup: Please indicate how the test categorized CC(O)CN(CCN(CC(C)O)CC(C)O)CC(C)O (stereo not given) .
Found: no

###

read-out: Urokinase-type plasminogen activator receptor (uPAR), PLAUR (gene 5329); assay: BSK_BE3C_uPAR: BioMAP Diversity Plus: BE3C Assay for Urokinase-type plasminogen activator receptor (uPAR) Biomarker Activity (AID 2283039); conditions: primary human bronchial epithelial cells; actives raise or lower the signal
Active and inactive are the calls of the source. How the source made its calls: active means hit-call score of the fitted dose curve at least 0.9, where 1 is the maximum; inactive means score below 0.9.
In this exercise, the only acceptable responses are T for active, F for inactive

Some entries whose results are on file:
| Molecule | Qualitative Label |
| --- | --- |
| CN(C)c1ccc(N=NS(=O)(=O)O)cc1 | F |
| O=C1OC(=O)C2C3C=CC(C3)C12 (stereo not drawn) | F |
| CC1(C)C(=O)N(Br)C(=O)N1Br | F |
| CC(C)CC(C)(O)C#CC(C)(O)CC(C)C (stereo not drawn) | F |
| O=C(O)c1cccc(N(Cc2cccnc2)c2ccc(OC(F)F)c(OC(F)F)c2)c1 | F |
| COc1ccc(/C=C/S(=O)(=O)NC(=O)c2ccc(C)cc2Cl)cc1 | F |
| CC(C)(O)c1coc(S(=O)(=O)NC(=O)Nc2c3c(cc4c2CCC4)CCC3)c1 | F |
| O=C(OC[C@H]1O[C@@H](OC(=O)c2cc(O)c(O)c(OC(=O)c3cc(O)c(O)c(O)c3)c2)[C@H](OC(=O)c2cc(O)c(O)c(OC(=O)c3cc(O)c(O)c(O)c3)c2)[C@@H](OC(=O)c2cc(O)c(O)c(OC(=O)c3cc(O)c(O)c(O)c3)c2)[C@@H]1OC(=O)c1cc(O)c(O)c(OC(=O)c2cc(O)c(O)c(O)c2)c1)c1cc(O)c(O)c(OC(=O)c2cc(O)c(O)c(O)c2)c1 | T |

Now let's try a different one.
Lookup: Please indicate how the test categorized `CCC(C)(C)C(=O)O[C@H]1C[C@@H](C)C=C2C=C[C@H](C)[C@H](CC[C@@H]3C[C@@H](O)CC(=O)O3)[C@H]21` .
Found: T

###

Read-out: Interleukin-1 alpha (IL1a), IL1A (gene 3552)
Experiment: BSK_LPS_IL1a: BioMAP Diversity Plus: LPS Assay for Interleukin-1 alpha (IL1a) Biomarker Activity (AID 2283080)
Conditions: primary human HUVEC with PBMC; actives raise or lower the signal
Protocol: BSK_LPS is a cell-based, multiplexed-readout assay that uses umbilical vein endothelium and peripheral blood mononuclear cells, a human vascular primary cell co-culture, with measurements taken at 24 hours after chemical dosing in a 96-well plate.BSK_LPS_IL1a is an assay component measured in the BSK_LPS assay. It measures IL-a antibody related to regulation of gene expression using ELISA technology.Data from the assay component BSK_LPS_IL1a was analyzed into 1 assay endpoint. […]
Active and inactive are the calls of the source. How the source made its calls: active means hit-call score of the fitted dose curve at least 0.9, where 1 is the maximum; inactive means score below 0.9.
Experimental Readout: AC50

Worked cases, AC50 given:
| Molecule | AC50 |
| --- | --- |
| CCCCCCCCCCCCCCCO | 31.9 µM (active) |
| CCOc1cccc(-n2cc(C(=O)N3CCN(c4cc(C(=O)O)c5ccccc5c4)CC3)nc2-c2ccc(C)cc2)c1 | 19.2 µM (active) |
| CC(C)=CCCC(C)=CC=O | inactive |
| CCOC(=O)COc1ccc2c(c1)CC(NCC(O)c1cccc(Cl)c1)CC2 (stereo unspecified) | 18.3 µM (active) |

Lookup: Request the reported AC50 associated with `COCCOc1cc2cc(C(=O)NC3CCN(C(C)C)CC3)n(CC(=O)Nc3ccc(Cl)cn3)c2cn1`
Found: inactive

Lookup: Request the reported AC50 associated with CCOC(=O)c1ccc(C2CCC(NC[C@H](O)COc3ccc(O)c(NS(C)(=O)=O)c3)CC2)cc1 (stereo partly specified)
Found: 29.9 µM (active)

Lookup: Request the reported AC50 associated with `CC[C@H]1CC[C@H](NCc2cc3c(cc2OC)[C@H]2C[C@H]2C(=O)N3C)[C@H](c2ccccc2)N1`
Found: inactive

Lookup: Request the reported AC50 associated with `Clc1nc(Cl)c(Cl)c(Cl)c1Cl`
Found: 14.4 µM (active)

Lookup: Request the reported AC50 associated with O=C(O)CC(O)C(=O)O (stereo unspecified)
Found: inactive

Lookup: Request the reported AC50 associated with `O=C(O)c1cc(N=Nc2ccc(S(=O)(=O)Nc3ccccn3)cc2)ccc1O`
Found: inactive

Lookup: Request the reported AC50 associated with O=c1[nH]c2ccc(S(=O)CCN3CCC(Cc4ccc(F)cc4)CC3)cc2o1 (stereo unspecified)
Found: inactive
